experiment: Solubility measurement of saturated solutions by HPLC at room temperature (0 h and 24 h); assay type: physicochemical; settings: buffered water with excipients, pH 4, aqueous with cosolvent or surfactant or cyclodextrin, thermodynamic from solid, CBS 30 mM pH 4.0, NaCl 3 mg/mL; SBE-beta-CD 40 mg/mL + Glycerol 1 mg/mL; 0 h; pH exp 4.1
REPORTED_METRIC: solubility at 0 h (µg/mL)
Answers are plain numbers, in µg/mL.

Entry COc1cc(N2CCNCC2)ccc1Nc1ncc2c(n1)-n1ccc(C(=O)Nc3c(C)cccc3C)c1CC2 [compound of formula (I)] ; solubility at 0 h = 2400

====

assay: Solubility measurement of saturated solutions by HPLC at room temperature (0 h and 24 h); assay type: physicochemical; conditions: buffered water with excipients, pH 4, aqueous with cosolvent or surfactant or cyclodextrin, thermodynamic from solid, CBS 30 mM pH 4.0, NaCl 3 mg/mL; SBE-beta-CD 40 mg/mL + PEG 400 20 mg/mL; 0 h; pH exp 4.1
REPORTED_METRIC: solubility at 0 h (µg/mL)
Answers are plain numbers, in µg/mL.

Entry `COc1cc(N2CCNCC2)ccc1Nc1ncc2c(n1)-n1ccc(C(=O)Nc3c(C)cccc3C)c1CC2` ; solubility at 0 h = 2570
